Biological target: hCA-IX (catalytic domain) (Homo sapiens)
Test: Thermal shift assay (TSA / differential scanning fluorimetry)
Type: binding
Settings: screening at 20 µM
So I've got a bunch of molecules here, and I need their ΔTm values.
Please reply with the bare figure in °C and do not write the unit itself.

Task: So what ΔTm did Cc1cc(C(=O)NS(=O)(=O)c2cccc(-n3cc(-c4ccc5nonc5c4)nn3)c2)on1 get with hCA-IX (catalytic domain) (Homo sapiens)?
Result: 0.18

Task: Form field: ΔTm recorded for Cc1cc(C(=O)NS(=O)(=O)c2ccc(-c3cn(CCN(C)Cc4cccc(F)c4)nn3)cc2)ccn1 with hCA-IX (catalytic domain) (Homo sapiens) (enter value)
Result: 1.14

Task: Please tell me: ΔTm of O=C(NS(=O)(=O)c1ccc(-c2cn(CC3COc4ccccc4O3)nn2)cc1)c1cnsc1 (stereo not shown) , system hCA-IX (catalytic domain) (Homo sapiens)?
Result: 1.28

Task: Tell me reported ΔTm for COCC(=O)NS(=O)(=O)c1ccc(-c2cn(CCN(C)Cc3cccc(F)c3)nn2)cc1 , tested with hCA-IX (catalytic domain) (Homo sapiens).
Result: 1.17
